test system: Liver microsomes; assay: Intrinsic clearance in human liver microsomes at 1 uM after 0.25 to 60 mins by LC-MS/MS analysis; type: ADME, Microsome
Sorting guide: entries reporting CL beneath 3 L/min go in the 1 (yes) pile, the rest go in the 0 (no) pile.

A selection of reference data follows.
compound	system_tested	class
Cc1cc(-c2cccc(Cl)c2)ncc1C1CC(O)CN1C(=O)c1cnccn1 (stereo not given)	Liver microsomes	1 (yes)
Cc1cc(-c2cccc(Cl)c2)ncc1C1CCCN1C(=O)c1nccs1 (racemic)	Liver microsomes	0 (no)
Cc1cc(-c2cccc(Cl)c2)ncc1C1CC(F)CN1C(=O)c1cnccn1 (stereo not given)	Liver microsomes	1 (yes)
O=C(c1cnccn1)N1CCCC1c1ccc(-c2cccc(Cl)c2)nc1 (stereo not given)	Liver microsomes	0 (no)
COc1cc(-c2cccc(Cl)c2)ncc1C1CCCN1C(=O)c1cncs1 (stereo not given)	Liver microsomes	1 (yes)

Req: Is CL strictly under 3 L/min for the entry Cc1cc(-c2cccc(Cl)c2)ncc1C1CCCN1C(=O)c1ccncn1 (stereo not given) ?
Resp: 0 (no)

Req: Is CL strictly under 3 L/min for the entry Cc1cc(-c2cccc(Cl)c2)ncc1C1CC(O)CN1C(=O)c1nccs1 (stereo not given) ?
Resp: 1 (yes)

Req: Is CL strictly under 3 L/min for the entry O=C(c1cncs1)N1CCCC1c1ccc(-c2cccc(Cl)c2)nc1 (stereo not given) ?
Resp: 1 (yes)

Req: Is CL strictly under 3 L/min for the entry O=C(c1nccs1)N1CCCC1c1ccc(-c2cccc(Cl)c2)nc1 (stereo not given) ?
Resp: 0 (no)

Req: Is CL strictly under 3 L/min for the entry Cc1cc(-c2cccc(Cl)c2)ncc1C1CCCN1C(=O)c1cncs1 (stereo not given) ?
Resp: 0 (no)

Req: Is CL strictly under 3 L/min for the entry Cc1cc(-c2cccc(Cl)c2)ncc1C1CCCN1C(=O)C1CCC1 (stereo not given) ?
Resp: 0 (no)

Req: Is CL strictly under 3 L/min for the entry Cc1cc(C(=O)N2CCCC2c2cnc(-c3cccc(Cl)c3)cc2C)no1 (stereo not given) ?
Resp: 0 (no)

Req: Is CL strictly under 3 L/min for the entry Cc1cc(-c2cccc(Cl)c2)ncc1C1CC(F)CN1C(=O)c1cncs1 (stereo not given) ?
Resp: 0 (no)

Req: Is CL strictly under 3 L/min for the entry Cc1cc(-c2cccc(Cl)c2)ncc1C1CCCN1C(=O)c1cnccn1 (stereo not given) ?
Resp: 0 (no)
